Experimental system: Adrenergic receptor alpha-1 (Rattus norvegicus) (UniProt P15823+P23944+P43140)
Protocol details: Displacement of [3H]Prazosin from rat alpha1 adrenergic receptor at 10 uM after 60 mins by liquid scintillation counting
Can you tell me inhibition for the items I'm about to list?
Lab book: enter the figure in %, no units written.

Param readout = inhibition; param system = Adrenergic receptor alpha-1 (Rattus norvegicus) (UniProt P15823+P23944+P43140); param query = OC(CCN1CCC(O)(Cc2ccccc2)CC1)c1ccc(Cl)c(Cl)c1 (racemic) ; response: value 84.3

Param readout = inhibition; param system = Adrenergic receptor alpha-1 (Rattus norvegicus) (UniProt P15823+P23944+P43140); param query = OC(CCN1CC=C(Cc2ccccc2)CC1)c1ccc(Cl)c(Cl)c1 (racemic) ; response: value 35.6

Param readout = inhibition; param system = Adrenergic receptor alpha-1 (Rattus norvegicus) (UniProt P15823+P23944+P43140); param query = COc1ccc2cc(C(O)CCN3CC=C(Cc4ccccc4)CC3)ccc2c1Cl (racemic) ; response: value 45.6

Param readout = inhibition; param system = Adrenergic receptor alpha-1 (Rattus norvegicus) (UniProt P15823+P23944+P43140); param query = OC(CCN1CC=C(Cc2ccccc2)CC1)c1csc2ccccc12 (racemic) ; response: value 51.2

Param readout = inhibition; param system = Adrenergic receptor alpha-1 (Rattus norvegicus) (UniProt P15823+P23944+P43140); param query = OC(CCN1CC=C(Cc2ccccc2)CC1)c1cc2ccccc2s1 (racemic) ; response: value 0.8
